Molecular target: COX-1 (Ovis aries, UniProt P05979)
Sequence (P05979 25-600): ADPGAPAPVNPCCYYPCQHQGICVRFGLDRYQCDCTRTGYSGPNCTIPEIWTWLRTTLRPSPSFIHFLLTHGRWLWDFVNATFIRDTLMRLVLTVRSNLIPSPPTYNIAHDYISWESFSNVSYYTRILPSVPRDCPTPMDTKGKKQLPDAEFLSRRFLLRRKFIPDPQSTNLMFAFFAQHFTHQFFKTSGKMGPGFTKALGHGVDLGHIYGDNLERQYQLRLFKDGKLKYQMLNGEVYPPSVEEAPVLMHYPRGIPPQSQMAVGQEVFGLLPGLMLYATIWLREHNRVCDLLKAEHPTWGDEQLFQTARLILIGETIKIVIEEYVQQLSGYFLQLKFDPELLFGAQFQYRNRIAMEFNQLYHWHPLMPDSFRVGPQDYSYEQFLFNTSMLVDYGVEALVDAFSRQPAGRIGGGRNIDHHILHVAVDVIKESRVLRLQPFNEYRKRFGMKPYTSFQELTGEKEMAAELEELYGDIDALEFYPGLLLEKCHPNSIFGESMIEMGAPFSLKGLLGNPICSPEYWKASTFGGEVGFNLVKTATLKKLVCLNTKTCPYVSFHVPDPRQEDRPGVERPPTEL
Test: In vitro COX inhibitory assay
Format: biochemical
Settings: read-out: Inhibition of COX-1 (%)
MEASURED PROPERTY: inhibition at 50 µg/mL (%)

The cases that follow already have their inhibition at 50 µg/mL on record.
• CN(C)c1ccc(C2N=C(N)Nc3nc(C(=O)Nc4ccc(S(N)(=O)=O)cc4)nn32)cc1 (centres unmarked) = 28.6
• NC1=NC(c2ccccc2O)n2nc(C(=O)Nc3ccc(S(N)(=O)=O)cc3)nc2N1 (centres unmarked) = 41.3
• NC1=NC(c2ccccc2Cl)n2nc(C(=O)Nc3ccc(S(N)(=O)=O)cc3)nc2N1 (centres unmarked) = 30.1

(a) Cc1ccccc1C1N=C(N)Nc2nc(C(=O)Nc3ccc(S(N)(=O)=O)cc3)nn21 (centres unmarked)
(b) NC1=NC(c2ccco2)n2nc(C(=O)Nc3ccc(S(N)(=O)=O)cc3)nc2N1 (centres unmarked)
Hi there, can you help? I need to know whether a or b has lower measured inhibition at 50 µg/mL. # respond with the chosen item's label a
(a: 32.5%, b: 62.4%)
